- SYSTEM TESTED: T1, 新型冠状病毒(2019-nCoV)Spike蛋白 (全长三聚体S蛋白) (新型冠状病毒(2019-nCoV), UniProt P0DTC2 16-1213)
- T1 construct: also called 病毒S蛋白
- TEST: Octet Blitz (BLI), scFv-Fc, apparent affinity

{"BINDER": "CS7 (Fc fusion, also called 抗体CS7) VH: EVQLVQSGAEVKKPGSSVKVSCKASGGTFSSYAISWVRQAPGQGLEWMGGIIPILGIANYAQKFQGRVTITADKSTSTAYMELSSLRSEDTAVYYCARGSGDYSMDVWGQGTLVTVSS VL: QSALAQPASVSGSPGQSITISCTGTSSDVGGYNYVAWYQQHPGKAPKLMIYEVSNRPSGVSNRFSGSKSGNTASLTISGLQAEDEADYYCSSYTTRDTRVFGGGTKLTVL", "Kd (nM)": 12.3}
{"BINDER": "CS1 (Fc fusion, also called 抗体CS1) VH: QVQLQQSGAEVKKPGSSVKVSCKASGGTFSSYAISWVRQAPGQGLEWMGGIIPIFGTANYAQKFQGRVTITADESTSTAYMELSSLRSEDTAVYYCARDRGVGRGYSYGFLPLDYWGQGTLVTVSS VL: DIQMTQSPLSLPATPGEPASISCRSSQSLLHSDGYSYLHWYVQKPGQSPQLLISADSNRASGVPGRFSGSGSGTDFTLKISRVEAEDVGVYYCMQALQTPWTFGQGTKLDIK", "Kd (nM)": 1.2}
{"BINDER": "CS3 (Fc fusion, also called 抗体CS3) VH: EVQLVQSGAEVKKPGSSVKVSCKASGGTFSSYAISWVRQAPGQGLEWMGGIIPIFGTANYAQKFQGRVTITADKSTSTAYMELSSLRSEDTAVYYCARGSGDYGMDVWGQGTTVTVSS VL: QSALTQPASVSGSPGQSITISCTGTSSDVGLYNYVSWYQQHPGKAPKLMVSEVSNRPSGVSNRFSGSKSGNTASLTISGLQAEDEADYYCSSYTTRDTRVFGGGTKVTVL", "Kd (nM)": 23.2}
{"BINDER": "CS2 (Fc fusion, also called 抗体CS2) VH: EVQLVQSGAEVKKPGASVKVSCKASGGTFSSYAISWVRQAPGQGLEWMGGIIPIFGTANYAQKFQGRVTITADESTSTAYMELSSLRSEDTAVYYCARGSGDYGMDVWGQGTTVTVSS VL: QSALTQPASVSGSPGQSITISCTGTSSDVGGYNYVSWYQQHPGKAPKLVISEVRNRPSGVSNRFSGSKSGNTASLTISGLQAEDEADYYCSSYTTRDTRVFGGGTQLTVL", "Kd (nM)": 2.1}
